Values compiled from paper PMC5318275.

biological target: hMT1 melatonin receptor (Homo sapiens, UniProt P48039); assay: biochemical; assay type: binding; settings: human MT1 Ki value, GTP, presence of 100 μM GTP; 25 °C, 1 h; mean ± SEM
Sequence (P48039 whole entry): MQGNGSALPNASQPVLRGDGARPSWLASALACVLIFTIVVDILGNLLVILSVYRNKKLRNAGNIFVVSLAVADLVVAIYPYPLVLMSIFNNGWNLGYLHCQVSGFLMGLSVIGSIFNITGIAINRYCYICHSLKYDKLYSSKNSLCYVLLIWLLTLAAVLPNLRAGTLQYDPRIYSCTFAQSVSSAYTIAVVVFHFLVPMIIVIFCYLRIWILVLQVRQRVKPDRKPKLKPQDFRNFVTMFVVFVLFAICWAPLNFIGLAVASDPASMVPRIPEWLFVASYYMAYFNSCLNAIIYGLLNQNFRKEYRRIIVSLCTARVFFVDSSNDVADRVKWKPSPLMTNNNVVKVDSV
outcome-measure: Ki (µM)
Answers are plain numbers, in µM.

CNC(=O)Oc1cccc2ccccc12 [carbaryl, 1-naphthyl methylcarbamate]: 1.21

Data request: Report measured Ki on hMT1 melatonin receptor (Homo sapiens, UniProt P48039); entry: CNC(=O)Oc1cccc2c1OC(C)(C)C2
Data returned: 29.9

###

target: hMT2 melatonin receptor (Homo sapiens, UniProt P49286); test: biochemical; type: binding
outcome-measure: Ki (nM)
Numbers only, in nM.

CNC(=O)Oc1cccc2ccccc12 [carbaryl, 1-naphthyl methylcarbamate]: 70

Note: attention shifts to another entry.
Data request: Note down Ki recorded for CNC(=O)Oc1cccc2c1OC(C)(C)C2
Data returned: 1680

###

Target: hMT2 melatonin receptor (Homo sapiens)
Sequence (P49286 1-362): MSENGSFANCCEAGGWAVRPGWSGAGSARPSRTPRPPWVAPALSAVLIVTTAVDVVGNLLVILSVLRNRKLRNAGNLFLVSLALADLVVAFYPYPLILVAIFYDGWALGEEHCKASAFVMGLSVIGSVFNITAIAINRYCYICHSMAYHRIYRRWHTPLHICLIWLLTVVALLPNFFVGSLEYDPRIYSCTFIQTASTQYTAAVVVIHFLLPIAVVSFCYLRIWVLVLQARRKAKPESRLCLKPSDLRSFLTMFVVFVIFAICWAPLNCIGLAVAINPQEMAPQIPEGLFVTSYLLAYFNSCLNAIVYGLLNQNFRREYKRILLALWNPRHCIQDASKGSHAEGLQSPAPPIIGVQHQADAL
Assay: biochemical
Assay type: binding
Settings: human MT2 Ki value, GTP, presence of 100 μM GTP; 25 °C, 1 h; mean ± SEM
outcome-measure: Ki (µM)
One number for each entry, in µM.

CNC(=O)Oc1cccc2c1OC(C)(C)C2: 12.1

Note: attention shifts to another entry.
Data request: Note down Ki recorded for CNC(=O)Oc1cccc2ccccc12 [carbaryl, 1-naphthyl methylcarbamate]
Data returned: 0.31

###

molecular target: hMT2 melatonin receptor (Homo sapiens, UniProt P49286); experiment: biochemical; assay type: binding; details: human MT2 Ki value, control, absence of GTP; 25 °C, 1 h; mean ± SEM
outcome-measure: Ki (nM)
Numbers only, in nM.

Please give Ki, item by item, for the list that follows.
1. CNC(=O)Oc1cccc2c1OC(C)(C)C2 [carbofuran]
2. CNC(=O)Oc1cccc2ccccc12 [carbaryl, 1-naphthyl methylcarbamate]

Data returned:
1. 1670
2. 70

###

biological target: hMT1 melatonin receptor (Homo sapiens, UniProt P48039); experiment: biochemical; assay type: binding
outcome-measure: pKi
One number for each entry, as −log10 of the molar value.

Data request: Note down pKi recorded for CNC(=O)Oc1cccc2c1OC(C)(C)C2
Data returned: 4.23
